# Assayed target: UniProtKB O43614
# Sequence (O43614 1-444): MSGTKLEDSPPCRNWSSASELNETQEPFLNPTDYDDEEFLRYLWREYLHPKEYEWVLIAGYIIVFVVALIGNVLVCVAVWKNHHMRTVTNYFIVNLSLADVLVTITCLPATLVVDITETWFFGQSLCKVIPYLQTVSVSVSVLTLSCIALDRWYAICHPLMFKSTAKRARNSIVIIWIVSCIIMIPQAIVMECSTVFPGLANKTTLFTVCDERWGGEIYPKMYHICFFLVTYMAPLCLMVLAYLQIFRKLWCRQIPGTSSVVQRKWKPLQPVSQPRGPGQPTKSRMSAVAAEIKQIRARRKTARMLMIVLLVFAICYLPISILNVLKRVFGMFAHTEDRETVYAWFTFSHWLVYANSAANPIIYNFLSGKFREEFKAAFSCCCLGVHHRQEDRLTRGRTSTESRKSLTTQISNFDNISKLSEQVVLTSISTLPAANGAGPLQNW
# Test description: Radioligand binding assay ([3H]-SB649868 competition), hOx2R
# Condition description: competition with about 1 nM [3H]-SB649868; CHO or HEK cell membranes expressing human orexin 2 receptor; read-out: binding hOx2R Kd
pKd: −log10 of the molar value.
Everything with pKd lower than 7 is n; everything else, including exactly 7, is y.

>  <Chem smiles>
Cc1cc(C#N)cc(N2CCC3(CCCN(Cc4c[nH]c5ccccc45)C3=O)CC2)n1

>  <Assayed target>
UniProtKB O43614

>  <Class assignment>
n

$$$$
>  <Chem smiles>
Cc1ccnc(N2CCC3(CCCN(Cc4c[nH]c5ccccc45)C3=O)CC2)n1

>  <Assayed target>
UniProtKB O43614

>  <Class assignment>
y

$$$$
>  <Chem smiles>
COc1cncc(-c2nn(C)nc2CN2CCCC3(CCN(c4nc(C)cc(C)n4)CC3)C2=O)c1

>  <Assayed target>
UniProtKB O43614

>  <Class assignment>
y

$$$$
>  <Chem smiles>
Cc1cc(C#N)nc(N2CCC3(CCCN(Cc4cccc(-c5ncc(C)o5)c4)C3=O)CC2)n1

>  <Assayed target>
UniProtKB O43614

>  <Class assignment>
n

$$$$
>  <Chem smiles>
Cc1cc(C)nc(N2CCC3(CCCN(Cc4nc(C)sc4-c4ccccc4)C3=O)CC2)n1

>  <Assayed target>
UniProtKB O43614

>  <Class assignment>
n

$$$$
>  <Chem smiles>
COCc1ccc2[nH]cc(CN3CCCC4(CCN(c5nc(C)cc(C)n5)CC4)C3=O)c2c1

>  <Assayed target>
UniProtKB O43614

>  <Class assignment>
y

$$$$
>  <Chem smiles>
N#Cc1ccnc(N2CCC3(CCCN(Cc4cccc(-c5ncccn5)c4)C3=O)CC2)n1

>  <Assayed target>
UniProtKB O43614

>  <Class assignment>
n

$$$$
>  <Chem smiles>
COc1cccc(-c2nn(C)nc2CN2CCCC3(CCN(c4nc(C)cc(C)n4)CC3)C2=O)n1

>  <Assayed target>
UniProtKB O43614

>  <Class assignment>
n

$$$$
>  <Chem smiles>
COCc1cccc(-c2oc(C)nc2CN2CCCC3(CCN(c4nc(C)cc(C)n4)CC3)C2=O)c1

>  <Assayed target>
UniProtKB O43614

>  <Class assignment>
y

$$$$

----------
# Assayed target: human orexin 2 receptors (Homo sapiens, UniProt O43614)
# Test description: Calcium accumulation in cells (FLIPR), hOx2R
# Condition description: cells expressing human orexin 2 receptor; inhibition of orexin A-induced calcium accumulation; Cheng and Prusoff correction
So basically, if Ki comes in under 80 nM it's Satisfied, and if it's 80 nM or more it's Not satisfied.

>  <Chem smiles>
Cc1ccnc(N2CCC3(CCCN(Cc4c[nH]c5ccccc45)C3=O)CC2)n1

>  <Class assignment>
Satisfied

$$$$
>  <Chem smiles>
Cc1cc(C)nc(N2CCC3(CCCN(Cc4n[nH]c5ccccc45)C3=O)CC2)n1

>  <Class assignment>
Satisfied

$$$$
>  <Chem smiles>
N#Cc1cncc(N2CCC3(CCCN(Cc4c[nH]c5ccccc45)C3=O)CC2)n1

>  <Class assignment>
Not satisfied

$$$$
>  <Chem smiles>
COc1cc(C)nc(N2CCC3(CCCN(Cc4n[nH]c5ccccc45)C3=O)CC2)n1

>  <Class assignment>
Satisfied

$$$$
>  <Chem smiles>
Cc1nccc(N2CCC3(CCCN(Cc4c[nH]c5ccccc45)C3=O)CC2)n1

>  <Class assignment>
Not satisfied

$$$$
>  <Chem smiles>
Cc1cc(C)nc(N2CCC3(CCCN(Cc4nc(C)sc4-c4ccccc4)C3=O)CC2)n1

>  <Class assignment>
Satisfied

$$$$
>  <Chem smiles>
COc1cncc(N2CCC3(CCCN(Cc4cccc5c4OCCO5)C3=O)CC2)n1

>  <Class assignment>
Not satisfied

$$$$
>  <Chem smiles>
COc1cc(OC)nc(N2CCC3(CCCN(Cc4c[nH]c5ccccc45)C3=O)CC2)n1

>  <Class assignment>
Satisfied

$$$$
>  <Chem smiles>
Cc1cnc(-c2cccc(CN3CCCC4(CCN(c5cc(C#N)ccn5)CC4)C3=O)c2)o1

>  <Class assignment>
Satisfied

$$$$
>  <Chem smiles>
Cc1cc(C)nc(N2CCC3(CCCN(Cc4nc(C)oc4-c4ccccc4)C3=O)CC2)n1

>  <Class assignment>
Satisfied

$$$$
>  <Chem smiles>
Cn1cc(CN2CCCC3(CCN(c4cncc(Cl)n4)CC3)C2=O)c2ccccc21

>  <Class assignment>
Not satisfied

$$$$
>  <Chem smiles>
Cc1cc(C#N)cc(N2CCC3(CCCN(Cc4cccc(-c5ncc(C)o5)c4)C3=O)CC2)n1

>  <Class assignment>
Satisfied

$$$$
>  <Chem smiles>
O=C1N(Cc2c[nH]c3ccccc23)CCCC12CCN(c1nccc(Cl)n1)CC2

>  <Class assignment>
Not satisfied

$$$$
>  <Chem smiles>
Cc1ccnc(N2CCC3(CCCN(Cc4cccc(-c5ncccn5)c4)C3=O)CC2)n1

>  <Class assignment>
Not satisfied

$$$$
>  <Chem smiles>
Cc1ccc(N2CCC3(CCCN(Cc4c[nH]c5ccccc45)C3=O)CC2)nc1

>  <Class assignment>
Not satisfied

$$$$
>  <Chem smiles>
CC(C)c1ccnc(N2CCC3(CCCN(Cc4c[nH]c5ccccc45)C3=O)CC2)n1

>  <Class assignment>
Not satisfied

$$$$
>  <Chem smiles>
Cc1ccnc(N2CCC3(CCCN(Cc4cccc(-c5ncc(C)o5)c4)C3=O)CC2)n1

>  <Class assignment>
Satisfied

$$$$
>  <Chem smiles>
N#Cc1cccc(N2CCC3(CCCC(=O)N3Cc3cccc4[nH]ccc34)CC2)n1

>  <Class assignment>
Not satisfied

$$$$
>  <Chem smiles>
N#Cc1cccc(N2CCC3(CCCN(Cc4c[nH]c5ccccc45)C3=O)CC2)n1

>  <Class assignment>
Satisfied

$$$$
>  <Chem smiles>
Cc1cncc(N2CCC3(CCCN(Cc4c[nH]c5ncccc45)C3=O)CC2)n1

>  <Class assignment>
Not satisfied

$$$$
>  <Chem smiles>
COc1cccc(-c2sc(C)nc2CN2CCCC3(CCN(c4nc(C)cc(C)n4)CC3)C2=O)c1

>  <Class assignment>
Satisfied

$$$$
>  <Chem smiles>
Cc1ccnc(N2CCC3(CCCN(Cc4c[nH]c5ccccc45)C3=O)CC2)c1

>  <Class assignment>
Not satisfied

$$$$

----------
# Assayed target: human orexin 1 receptors (Homo sapiens)
# Sequence (O43613 whole entry): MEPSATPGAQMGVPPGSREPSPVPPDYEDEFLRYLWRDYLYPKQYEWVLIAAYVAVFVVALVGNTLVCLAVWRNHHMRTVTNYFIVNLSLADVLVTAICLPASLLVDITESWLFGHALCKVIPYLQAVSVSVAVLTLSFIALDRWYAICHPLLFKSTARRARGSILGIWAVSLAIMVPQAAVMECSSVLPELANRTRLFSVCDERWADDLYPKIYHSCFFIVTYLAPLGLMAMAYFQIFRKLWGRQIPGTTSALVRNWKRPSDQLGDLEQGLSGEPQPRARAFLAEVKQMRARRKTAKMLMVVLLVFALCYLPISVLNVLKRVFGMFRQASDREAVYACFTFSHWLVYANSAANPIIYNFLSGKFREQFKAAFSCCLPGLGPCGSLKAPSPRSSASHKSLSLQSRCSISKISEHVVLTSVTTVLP
# Test description: Calcium accumulation in cells (FLIPR), hOx1R
# Condition description: read-out: FLIPR hOx1R % inhibition value

>  <Chem smiles>
Cc1ccnc(N2CCC3(CCCC(=O)N3Cc3ccccc3-n3nccn3)CC2)n1

>  <Assayed target>
human orexin 1 receptors (Homo sapiens)

>  <inhibition at 10 µM (%)>
31

$$$$
>  <Chem smiles>
COCc1cccc(CN2CCCC3(CCN(c4nc(C)cc(C)n4)CC3)C2=O)c1

>  <Assayed target>
human orexin 1 receptors (Homo sapiens)

>  <inhibition at 10 µM (%)>
22

$$$$
>  <Chem smiles>
Cc1cc(C)nc(N2CCC3(CCCN(Cc4ccccc4-n4nccn4)C3=O)CC2)n1

>  <Assayed target>
human orexin 1 receptors (Homo sapiens)

>  <inhibition at 10 µM (%)>
22

$$$$

----------
# Assayed target: human orexin 2 receptors (Homo sapiens)
# Sequence (O43614 1-444): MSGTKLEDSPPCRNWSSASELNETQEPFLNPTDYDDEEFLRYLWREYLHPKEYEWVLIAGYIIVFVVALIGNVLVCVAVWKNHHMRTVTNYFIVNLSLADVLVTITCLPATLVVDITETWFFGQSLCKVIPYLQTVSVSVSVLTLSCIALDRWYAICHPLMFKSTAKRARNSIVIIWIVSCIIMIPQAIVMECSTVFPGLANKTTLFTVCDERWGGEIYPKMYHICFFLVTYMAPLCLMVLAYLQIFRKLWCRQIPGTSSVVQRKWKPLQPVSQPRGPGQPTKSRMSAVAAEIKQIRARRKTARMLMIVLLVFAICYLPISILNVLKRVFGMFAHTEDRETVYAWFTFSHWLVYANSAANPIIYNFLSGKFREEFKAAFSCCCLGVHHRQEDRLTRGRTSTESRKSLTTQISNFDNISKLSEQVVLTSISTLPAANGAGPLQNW
# Test description: Calcium accumulation in cells (FLIPR), hOx2R
# Condition description: cells expressing human orexin 2 receptor; inhibition of orexin A-induced calcium accumulation; Cheng and Prusoff correction
pKi: −log10 of the molar value.
Everything with pKi lower than 7 is NO; everything else, including exactly 7, is YES.

>  <Chem smiles>
Cc1cc(C)nc(N2CCC3(CCCN(Cc4c[nH]c5ccccc45)C3=O)CC2)n1

>  <Class assignment>
YES

$$$$
>  <Chem smiles>
Cc1cc(C)nc(N2CCC3(CCCN(Cc4ccccc4-c4ccco4)C3=O)CC2)n1

>  <Class assignment>
YES

$$$$
>  <Chem smiles>
Cc1cc(N(C)C)nc(N2CCC3(CCCN(Cc4c[nH]c5ccccc45)C3=O)CC2)n1

>  <Class assignment>
YES

$$$$
>  <Chem smiles>
Cc1ccnc(N2CCC3(CCCC(=O)N3Cc3cccc4[nH]c(C)cc34)CC2)n1

>  <Class assignment>
YES

$$$$
>  <Chem smiles>
Cc1cc(C#N)nc(N2CCC3(CCCN(Cc4c[nH]c5ccccc45)C3=O)CC2)n1

>  <Class assignment>
YES

$$$$
>  <Chem smiles>
N#Cc1ccnc(N2CCC3(CCCN(Cc4cccc(-c5ncccn5)c4)C3=O)CC2)c1

>  <Class assignment>
YES

$$$$
>  <Chem smiles>
Cc1cc(C)nc(N2CCC3(CCCN(Cc4cccc(-c5noc(C)n5)c4)C3=O)CC2)n1

>  <Class assignment>
YES

$$$$
>  <Chem smiles>
Cc1ccnc(N2CCC3(CCCC(=O)N3Cc3ccccc3-n3nccn3)CC2)n1

>  <Class assignment>
NO

$$$$
>  <Chem smiles>
O=C1CCCC2(CCN(c3cncc(Cl)n3)CC2)N1Cc1cccc2[nH]ccc12

>  <Class assignment>
YES

$$$$
>  <Chem smiles>
N#Cc1ccnc(N2CCC3(CCCN(Cc4c[nH]c5ccccc45)C3=O)CC2)c1

>  <Class assignment>
YES

$$$$
>  <Chem smiles>
COCc1cccc(CN2CCCC3(CCN(c4nc(C)cc(C)n4)CC3)C2=O)c1

>  <Class assignment>
NO

$$$$
>  <Chem smiles>
Cc1cccnc1N1CCC2(CCCN(Cc3c[nH]c4ccccc34)C2=O)CC1

>  <Class assignment>
NO

$$$$
